src = PubChem BioAssay (NCI)

Test system: UO-31 renal
PROTOCOL_TEXT: NCI-60 one-dose screen, 48 h (100 = growth as untreated, 0 = no growth, -100 = all killed)
ASSAY_CONTEXT: 10 µM unless noted
The panel holds about 83,000 compounds, 20% with a hit somewhere; the sample as a whole holds those more often. The source made the active and inactive calls. Rule for the calls: active = growth percent below 10; inactive = the rest.
Listed below: growth values for each entry.

Some compounds with recorded growth:
CC(C)(C)c1cc(C(=O)Nc2ccc(C(=O)NCCN)cc2)cc(C(C)(C)C)c1 = 69.5% (inactive)
O=C(CCCSc1nc(-c2ccccc2)cc(-c2ccccc2)n1)NO = -13.9% (active)
Cc1cc(C)nc(SCC(=O)Nc2cccc(N=Cc3ccccc3O)c2)n1 = 76.7% (inactive)
COc1ccc2nc3c(cc2c1)C(=O)CC(C(F)(F)F)C3 (stereo unspecified) = 46.6% (inactive)
CC(=O)Nc1ccc(C=Nc2ccc3ccccc3c2)cc1 = 98.5% (inactive)
CCCCCCCCCCCCNC(=S)N/N=C/c1ccccc1O = 37.6% (inactive)

Attention now shifts to the item below.
response.value for O=S(=O)(NCCCNc1nccc(-c2c(-c3cccc(F)c3)nc3occn23)n1)c1cccc2ccccc12 (field: growth) = 17.6% (inactive)
